assay: Bioavailability of compound at a dose 30 umol/kg administered orally; format: ADME, organism-based; details: eutheria, in vivo, po, at 30 µmol/kg
Experimental Readout: bioavailability (%)

Smiles Data: Cc1c(NC(=O)N2CCOCC2)ccc2c1c1ccccc1n2C(C)C
Experimental Readout: bioavailability
Value Unit: %
Assay Result: 76

###

assay: Half-life of compound at a dose 10 umol/kg was administered intravenously; assay type: ADME, organism-based; settings: in vivo, iv

Smiles Data: Cc1c(NC(=O)N2CCOCC2)ccc2c1c1ccccc1n2C(C)C
half-life: 222 min

###

assay: Half-life of compound at a dose 30 umol/kg administered orally; format: ADME, organism-based; details: in vivo, po

Smiles Data: Cc1c(NC(=O)N2CCOCC2)ccc2c1c1ccccc1n2C(C)C
half-life [min]: 384

###

molecular target: Neuropeptide Y receptor type 5 (Homo sapiens, UniProt Q15761); assay: The compound was evaluated in vitro for: human Neuropeptide Y receptor Y5 functional antagonism
pIC50: −log10 of the molar value.

Smiles Data: Cc1c(NC(=O)N2CCOCC2)ccc2c1c1ccccc1n2C(C)C
pIC50: 7.43

###

target: UniProtKB Q15761; test: Compound was evaluated for functional antagonism of Neuropeptide Y receptor Y5 activity in cellular Ca flux

Smiles Data: Cc1c(NC(=O)N2CCOCC2)ccc2c1c1ccccc1n2C(C)C
Assayed System: UniProtKB Q15761
Value Unit: nM
IC50: 6

###

experiment: Volume of distribution of compound at a dose 10 umol/kg was administered intravenously; type: ADME, organism-based; conditions: in vivo, iv, read-out: Vss
Experimental Readout: Vd (L/kg)

Smiles Data: Cc1c(NC(=O)N2CCOCC2)ccc2c1c1ccccc1n2C(C)C
Value Unit: L/kg
Assay Result: 0.41

###

assay: Clearance level at a dose 10 umol/kg administered intravenously; type: ADME, organism-based; settings: in vivo, iv

Smiles Data: Cc1c(NC(=O)N2CCOCC2)ccc2c1c1ccccc1n2C(C)C
clearance / mL/min/kg: 1.33

###

Molecular target: Neuropeptide Y receptor type 5 (Homo sapiens, UniProt Q15761)
Sequence (Q15761 whole entry): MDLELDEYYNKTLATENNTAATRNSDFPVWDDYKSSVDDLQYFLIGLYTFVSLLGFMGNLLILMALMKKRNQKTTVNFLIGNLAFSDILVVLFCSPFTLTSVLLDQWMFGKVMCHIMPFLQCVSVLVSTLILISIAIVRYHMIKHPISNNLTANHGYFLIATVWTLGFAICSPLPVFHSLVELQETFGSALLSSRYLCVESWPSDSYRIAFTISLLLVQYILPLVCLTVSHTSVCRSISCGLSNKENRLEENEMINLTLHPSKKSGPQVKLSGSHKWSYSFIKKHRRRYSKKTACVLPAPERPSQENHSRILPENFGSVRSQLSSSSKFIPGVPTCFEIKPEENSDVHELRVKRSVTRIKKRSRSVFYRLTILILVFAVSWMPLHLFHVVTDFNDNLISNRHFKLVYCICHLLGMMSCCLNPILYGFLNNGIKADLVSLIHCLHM
Experiment: Binding affinity to the human Neuropeptide Y receptor Y5 (NPY5)
Note to self: class labels come from recorded IC50, ranges listed here: group 1 (below 0.008 µM), group 2 (0.008 µM to below 0.3 µM), group 3 (0.3 µM or more)

Compound: CCn1c2ccccc2c2cc(CNC(=O)Cc3ccncc3)ccc21
Assayed System: Neuropeptide Y receptor type 5 (Homo sapiens, UniProt Q15761)
Label Value: group 3
--
Compound: CN(C)S(=O)(=O)n1c2ccccc2c2cc(NC(=O)N3CCOCC3)ccc21
Assayed System: Neuropeptide Y receptor type 5 (Homo sapiens, UniProt Q15761)
Label Value: group 3
--
Compound: CCn1c2ccccc2c2cc(NC(=O)CCc3ccncc3)ccc21
Assayed System: Neuropeptide Y receptor type 5 (Homo sapiens, UniProt Q15761)
Label Value: group 1
--
Compound: CS(=O)(=O)n1c2ccccc2c2cc(NC(=O)N3CCOCC3)ccc21
Assayed System: Neuropeptide Y receptor type 5 (Homo sapiens, UniProt Q15761)
Label Value: group 2
--
Compound: Cc1cccc2c3cc(NC(=O)N4CCOCC4)ccc3n(C(C)C)c12
Assayed System: Neuropeptide Y receptor type 5 (Homo sapiens, UniProt Q15761)
Label Value: group 1
--
Compound: CCn1c2ccccc2c2cccc(NC(=O)CCc3ccncc3)c21
Assayed System: Neuropeptide Y receptor type 5 (Homo sapiens, UniProt Q15761)
Label Value: group 3
--
Compound: CC(C)n1c2ccccc2c2c(F)c(NC(=O)N3CCOCC3)c(F)cc21
Assayed System: Neuropeptide Y receptor type 5 (Homo sapiens, UniProt Q15761)
Label Value: group 2
--
Compound: CCn1c2ccccc2c2cc(C(=O)NCCc3ccncc3)ccc21
Assayed System: Neuropeptide Y receptor type 5 (Homo sapiens, UniProt Q15761)
Label Value: group 3
--
Compound: CCn1c2ccccc2c2cc(CC(=O)NCc3ccncc3)ccc21
Assayed System: Neuropeptide Y receptor type 5 (Homo sapiens, UniProt Q15761)
Label Value: group 3
--
Compound: O=C(Nc1ccc2c(c1)c1ccccc1n2C1CCOC1)N1CCOCC1 (stereo not given)
Assayed System: Neuropeptide Y receptor type 5 (Homo sapiens, UniProt Q15761)
Label Value: group 2
--
Compound: CS(=O)(=O)n1c2ccccc2c2cc(NC(=O)CCc3ccncc3)ccc21
Assayed System: Neuropeptide Y receptor type 5 (Homo sapiens, UniProt Q15761)
Label Value: group 1
--
Compound: Cn1c2ccccc2c2cc(NC(=O)CCc3ccncc3)ccc21
Assayed System: Neuropeptide Y receptor type 5 (Homo sapiens, UniProt Q15761)
Label Value: group 2
--
Compound: CCn1c2ccccc2c2cc(N(C)C(=O)CCc3ccncc3)ccc21
Assayed System: Neuropeptide Y receptor type 5 (Homo sapiens, UniProt Q15761)
Label Value: group 3
--
Compound: CC(C)(C)Cn1c2ccccc2c2cc(NC(=O)N3CCOCC3)ccc21
Assayed System: Neuropeptide Y receptor type 5 (Homo sapiens, UniProt Q15761)
Label Value: group 2
--
Compound: CCn1c2ccccc2c2ccc(NC(=O)CCc3ccncc3)cc21
Assayed System: Neuropeptide Y receptor type 5 (Homo sapiens, UniProt Q15761)
Label Value: group 3
--
Compound: Cc1c(NC(=O)N2CCOCC2)cc(C)c2c1c1ccccc1n2C(C)C
Assayed System: Neuropeptide Y receptor type 5 (Homo sapiens, UniProt Q15761)
Label Value: group 3
--
Compound: CC(C)n1c2ccccc2c2cc(NC(=O)CCc3ccncc3)ccc21
Assayed System: Neuropeptide Y receptor type 5 (Homo sapiens, UniProt Q15761)
Label Value: group 1
--
Compound: CC(=O)n1c2ccccc2c2cc(NC(=O)CCc3ccncc3)ccc21
Assayed System: Neuropeptide Y receptor type 5 (Homo sapiens, UniProt Q15761)
Label Value: group 1
--
Compound: CCOc1c(NC(=O)N2CCOCC2)ccc2c1c1ccccc1n2C(C)C
Assayed System: Neuropeptide Y receptor type 5 (Homo sapiens, UniProt Q15761)
Label Value: group 2
--
Compound: CC(C)c1c(NC(=O)N2CCOCC2)ccc2c1c1ccccc1n2C(C)C
Assayed System: Neuropeptide Y receptor type 5 (Homo sapiens, UniProt Q15761)
Label Value: group 3
--
Compound: O=C(CCc1ccncc1)Nc1ccc2[nH]c3ccccc3c2c1
Assayed System: Neuropeptide Y receptor type 5 (Homo sapiens, UniProt Q15761)
Label Value: group 2
--
Compound: CC(C)n1c2ccccc2c2cc(NC(=O)N3CCOCC3)ccc21
Assayed System: Neuropeptide Y receptor type 5 (Homo sapiens, UniProt Q15761)
Label Value: group 1
--
Compound: Cc1cc2c(c(C)c1NC(=O)N1CCOCC1)c1ccccc1n2C(C)C
Assayed System: Neuropeptide Y receptor type 5 (Homo sapiens, UniProt Q15761)
Label Value: group 3
--
Compound: Cc1c(NC(=O)N2CCOCC2)ccc2c1c1ccccc1n2C(C)C
Assayed System: Neuropeptide Y receptor type 5 (Homo sapiens, UniProt Q15761)
Label Value: group 1
--
Compound: CCn1c2ccccc2c2cc(NC(=O)N3CCOCC3)ccc21
Assayed System: Neuropeptide Y receptor type 5 (Homo sapiens, UniProt Q15761)
Label Value: group 1
--
Compound: CC(C)n1c2ccc(F)cc2c2cc(NC(=O)N3CCOCC3)ccc21
Assayed System: Neuropeptide Y receptor type 5 (Homo sapiens, UniProt Q15761)
Label Value: group 1
--
Compound: CCn1c2ccccc2c2c(NC(=O)CCc3ccncc3)cccc21
Assayed System: Neuropeptide Y receptor type 5 (Homo sapiens, UniProt Q15761)
Label Value: group 3
--
Compound: O=C(CSc1ccncc1)Nc1ccc(C(=O)c2ccccc2)cc1
Assayed System: Neuropeptide Y receptor type 5 (Homo sapiens, UniProt Q15761)
Label Value: group 3

###

assay: Tmax of compound at a dose 30 umol/kg administered orally; format: ADME, organism-based; details: in vivo, po

Smiles Data: Cc1c(NC(=O)N2CCOCC2)ccc2c1c1ccccc1n2C(C)C
Tmax / h: 1
